All figures here come from ChEMBL document CHEMBL5352408.

- measurement.protocol: Cytotoxicity against human Huh-7 cells incubated for 96 hrs
- Format: toxicity, cell-based
value.type: CC50 at 96 h

> print(dat)
                              smiles.string    value.type  measured.value
1  C=C1CC[C@H]2[C@@](C)(CC/C(=N\O)[C@@]2(C)COC(c2ccccc2)(c2ccccc2)c2ccccc2)[C@@H]1/C=C/C1=CCOC1=O  CC50 at 96 h        > 200 µM

* * *

- measurement.protocol: Cytotoxicity against human A549 cells incubated for 96 hrs
- Format: toxicity, cell-based
value.type: CC50 at 96 h

> print(dat)
                              smiles.string  measured.value
1  C=C1CC[C@H]2[C@@](C)(CC/C(=N\O)[C@@]2(C)COC(c2ccccc2)(c2ccccc2)c2ccccc2)[C@@H]1/C=C/C1=CCOC1=O        > 200 µM

* * *

CC50 at 96 h values for the molecules below.
- measurement.protocol: Cytotoxicity against african green monkey Vero cells incubated for 96 hrs
- Assay type: toxicity, cell-based
- particulars: chlorocebus sabaeus
value.type: CC50 at 96 h

> print(dat)
                                   molecule    value.type  measured.value
1  C=C1CC[C@@H]2[C@](C)(COC(c3ccccc3)(c3ccccc3)c3ccccc3)[C@H](O)CC[C@@]2(C)[C@@H]1/C=C/C1=CCOC1=O  CC50 at 96 h        > 200 µM
2  C=C1CC[C@@H]2[C@](C)(CO)[C@H](O)CC[C@@]2(C)[C@@H]1C/C=C1/C(=O)OC[C@H]1O [ANDROGRAPHOLIDE]  CC50 at 96 h        > 200 µM
3  C=C1CC[C@H]2[C@@](C)(CC/C(=N\O)[C@@]2(C)COC(c2ccccc2)(c2ccccc2)c2ccccc2)[C@@H]1/C=C/C1=CCOC1=O  CC50 at 96 h        > 200 µM
4  C=C1CC[C@@H]2[C@](C)(CO)[C@H](O)CC[C@@]2(C)[C@@H]1/C=C/C1=CCOC1=O  CC50 at 96 h        > 200 µM
5  C=C1CC[C@H]2[C@@](C)(CC/C(=N\O)[C@@]2(C)CO[Si](c2ccccc2)(c2ccccc2)C(C)(C)C)[C@@H]1/C=C/C1=CCOC1=O  CC50 at 96 h        > 200 µM

* * *

- System: Zika virus
- measurement.protocol: Antiviral activity against ZIKV infected in human A549 cells incubated for 48 hrs by qRT-PCR
- Format: functional, organism-based
- particulars: A549, 48 h
pEC50: −log10 of the molar value.
value.type: pEC50

> print(dat)
                              smiles.string  value.type  measured.value
1  C=C1CC[C@H]2[C@@](C)(CC/C(=N\O)[C@@]2(C)COC(c2ccccc2)(c2ccccc2)c2ccccc2)[C@@H]1/C=C/C1=CCOC1=O       pEC50            6.35
